Recorded relative kcat/Km, one value per entry.
Molecular target: E. coli RNase P holoenzyme (M1 P RNA + rnpA protein) (UniProt P0A7Y8)
Sequence: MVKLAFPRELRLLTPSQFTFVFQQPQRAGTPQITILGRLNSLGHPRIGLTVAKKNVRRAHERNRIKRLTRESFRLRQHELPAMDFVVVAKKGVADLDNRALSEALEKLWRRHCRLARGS
Assay: relative kcat/Km (krel) vs genomic leader AAAGAU (relative (reference leader = 1)); higher = faster RNase P cleavage
Conditions: fraction of substrate reacted: ~26-29% (28.66% repeat 1, 26.4% repeat 2)
In all, about 4,100 sequences were measured (“relative kcat/Km (krel) vs genomic leader AAAGAU”: median about 1.7, highest 2% from about 6.5 on). Only a selection was taken, and the highest values are over-represented in it overall.
ATTRIBUTE MEASURED: relative kcat/Km

{"columns": ["CHAIN SEQUENCE", "OBSERVED"],
 "data": [
  ["AACTAG", 3.95],
  ["AACTAT", 6.43],
  ["CTCTCT", 7.22],
  ["TTTTAG", 4.51],
  ["ATCTCC", 6.39],
  ["GTTCAA", 4.21],
  ["ACAAAC", 2.42],
  ["GTTACA", 3.09],
  ["ACTTAC", 5.29],
  ["CTCTCC", 6.17],
  ["TGGTCT", 0.817],
  ["CTCTAA", 8.82],
  ["ATCCTT", 5.37],
  ["CTCCTC", 4.95],
  ["TAAAGA", 3.01],
  ["CTAAAA", 2.89],
  ["ATTCCA", 1.93],
  ["GTCGCC", 7.93],
  ["GCTATC", 1.64],
  ["CTCCTT", 6.06],
  ["CACCGA", 6.22],
  ["TTTCAG", 3.23],
  ["GGCTTC", 1.7],
  ["ATCCTC", 4.92],
  ["CTCGCT", 3.67],
  ["TACTGC", 5.96],
  ["TTCGCT", 4.56],
  ["TTCTAT", 10.5],
  ["GACTGT", 1.09],
  ["CAGCAA", 3.08],
  ["GTTCAT", 6.51],
  ["ATCGCC", 7.69],
  ["TTTCAC", 6.83],
  ["ACCTGC", 5.37],
  ["TGCTGT", 1.11],
  ["GACCGA", 6.73],
  ["TCCTGC", 7.5],
  ["TCCTGT", 2.18],
  ["ATCTCG", 3.55],
  ["CAGAGG", 0.599],
  ["TCCTGG", 1.15],
  ["CAGTCA", 2.56],
  ["CATCAA", 4.59],
  ["GACTTA", 5.78],
  ["GGCGCT", 1.43],
  ["GACTAA", 8.21],
  ["AATACC", 1.56],
  ["ATCGCA", 6.35],
  ["GATGGT", 2.1],
  ["TTTATT", 4.5],
  ["CTCTCG", 3.31],
  ["TGCTAC", 4.62],
  ["TTGCGA", 1.91],
  ["CCTTCC", 2.47],
  ["GCCCGG", 0.437],
  ["GACTAT", 8.33],
  ["CAGATT", 2.79],
  ["TCAGCT", 1.24],
  ["ATAACA", 1.43],
  ["GTTTAC", 7.14],
  ["CTCGCA", 6.71],
  ["GACCTC", 3.63],
  ["TTCCTG", 1.68],
  ["ACAGCG", 1.17],
  ["TACTAT", 9],
  ["ATCTAG", 5.72],
  ["CTTTAC", 6.2],
  ["CACTAG", 5.04],
  ["TTTCAT", 7.53]
]}

Provenance of the data: the supplement of paper PMC9433436
